measured target: T1, recombinant purified FRα (ECL assay calibrator) (human, UniProt P15328 25-234)
T1 construct: Calibrator of the ECL sandwich assays; also called FRα calibrator; FRα standard
T1 sequence (P15328 25-234 limits assumed): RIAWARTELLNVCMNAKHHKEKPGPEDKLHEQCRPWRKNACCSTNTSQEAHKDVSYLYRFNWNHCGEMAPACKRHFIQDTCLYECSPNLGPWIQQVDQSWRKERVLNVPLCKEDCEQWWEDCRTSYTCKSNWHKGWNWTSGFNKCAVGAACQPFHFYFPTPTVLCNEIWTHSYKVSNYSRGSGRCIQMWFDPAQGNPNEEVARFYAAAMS
measurement description: ECL sandwich, FRα calibrator; capture 1C6.E12.G8; binder = detection Ab

[
  {
    "binder": "Monoclonal antibody 19D4.B7 (antibody, mouse IgG2a, V domains shown, SULFO-TAG conjugated when used as detection antibody in the ECL assay; also called ATCC PTA-11884) VH: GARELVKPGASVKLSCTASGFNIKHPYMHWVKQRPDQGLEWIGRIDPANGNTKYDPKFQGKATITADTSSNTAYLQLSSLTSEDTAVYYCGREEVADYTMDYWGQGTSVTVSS VL: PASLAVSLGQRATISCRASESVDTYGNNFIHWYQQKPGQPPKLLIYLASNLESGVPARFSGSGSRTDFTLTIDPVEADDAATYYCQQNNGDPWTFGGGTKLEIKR",
    "Specific signal at 500 pg/mL": 2020
  }
]

All figures here come from patent US20180148504A1.
